Prolif. (cpm) for assorted molecules
System: STAT5b-GyrB fusion proteins
Details: Table 7, Example 5; 450 nM

| molecule | Prolif. (cpm) |
| --- | --- |
| COC1C(OC(=O)c2ccc(C)[nH]2)C(O)C(Oc2ccc3c(O)c(NC(=O)c4ccc(Oc5ccc(C(=O)Nc6c(O)c7ccc(OC8OC(C)(C)C(OC)C(OC(=O)c9ccc(C)[nH]9)C8O)c(C)c7oc6=O)cc5)cc4)c(=O)oc3c2C)OC1(C)C (centres unmarked) | 47023 cpm |
| COC1C(OC(=O)c2ccc(C)[nH]2)C(O)C(Oc2ccc3c(O)c(NC(=O)c4cc(=O)cc(C(=O)Nc5c(O)c6ccc(OC7OC(C)(C)C(OC)C(OC(=O)c8ccc(C)[nH]8)C7O)c(C)c6oc5=O)o4)c(=O)oc3c2C)OC1(C)C (centres unmarked) | 35212 cpm |
| COC1C(OC(N)=O)C(O)C(Oc2ccc3c(O)c(NC(=O)c4ccc(Oc5ccc(C(=O)Nc6c(O)c7ccc(OC8OC(C)(C)C(OC)C(OC(N)=O)C8O)c(C)c7oc6=O)cc5)cc4)c(=O)oc3c2C)OC1(C)C (centres unmarked) [CCmpd 4, reference compound] | 36763 cpm |
| COC1C(OC(N)=O)C(O)C(Oc2ccc3c(O)c(NC(=O)c4cc(=O)cc(C(=O)Nc5c(O)c6ccc(OC7OC(C)(C)C(OC)C(OC(N)=O)C7O)c(C)c6oc5=O)o4)c(=O)oc3c2C)OC1(C)C (centres unmarked) [CCmpd 3, reference compound] | 33712 cpm |
| COC1C(OC(=O)c2ccc(C)[nH]2)C(O)C(Oc2ccc3c(O)c(NC(=O)c4c[nH]c(C(=O)Nc5c(O)c6ccc(OC7OC(C)(C)C(OC)C(OC(=O)c8ccc(C)[nH]8)C7O)c(C)c6oc5=O)c4C)c(=O)oc3c2C)OC1(C)C (centres unmarked) | 60293 cpm |
